Listed here: items and their measured shrunken log2 fold change.
# System: Escherichia coli TOP10
# method: shrunken log2 fold change of peptide-encoding DNA abundance (4.5 h post-induction vs induction); higher = less antimicrobial activity (less host growth inhibition)
# measurement setup: time post-induction: 4.5 h; library: site-saturation at positions 5, 18, 19, 20
Enter the number alone.

RRIRMRPPRLPRPRPRPALKPRP; 1.09

Exercise: What value of shrunken log2 fold change has been reported for the following sequence? "RRIRTRPPRLPRPRPRPEDSPRP"
Solution: -0.0215

Exercise: Consider the sequence "RRIRMRPPRLPRPRPRPGWNPRP" and give its measured shrunken log2 fold change.
Solution: 0.226

Exercise: I am curious: what shrunken log2 fold change value has been reported for "RRIRTRPPRLPRPRPRPGASPRP" ?
Solution: 0.156

Exercise: Please report the recorded shrunken log2 fold change for "RRIRGRPPRLPRPRPRPARNPRP" .
Solution: 0.51

Exercise: Param item = "RRIRVRPPRLPRPRPRPSYCPRP" ; retrieve measured shrunken log2 fold change.
Solution: -0.18

----------
# Test system: Escherichia coli TOP10
# method: shrunken log2 fold change of peptide-encoding DNA abundance (4.5 h post-induction vs induction); higher = less antimicrobial activity (less host growth inhibition)
# measurement setup: time post-induction: 4.5 h; library: site-saturation at positions 5, 18, 19, 20
Classification by shrunken log2 fold change | ranges: low bin: < -0.2; mid bin: ≥ -0.2 and < 0.008; high bin: ≥ 0.008

RRIRNRPPRLPRPRPRPSSDPRP; mid bin
RRIRCRPPRLPRPRPRPCEVPRP; low bin
RRIRERPPRLPRPRPRPWYCPRP; mid bin
RRIRQRPPRLPRPRPRPHLKPRP; mid bin
RRIRRRPPRLPRPRPRPRNEPRP; high bin

Exercise: Each sequence maps to one class by shrunken log2 fold change. Which class for "RRIRYRPPRLPRPRPRPTRSPRP" ?
Solution: low bin

Exercise: Input "RRIRKRPPRLPRPRPRPIPQPRP" ; output its category
Solution: mid bin

Exercise: read the entry "RRIRNRPPRLPRPRPRPVYDPRP" and state which class it falls under.
Solution: low bin

Exercise: Form: Item = "RRIRTRPPRLPRPRPRPPDNPRP" ; Class = ?
Solution: mid bin

Exercise: Category lookup for the sequence "RRIRFRPPRLPRPRPRPLEAPRP"
Solution: high bin

Exercise: Please indicate the class for "RRIRYRPPRLPRPRPRPDFWPRP" based on its shrunken log2 fold change.
Solution: high bin

Exercise: For "RRIRKRPPRLPRPRPRPMFLPRP" , which shrunken log2 fold change bin applies?
Solution: mid bin

Exercise: Hi there! Could you help me figure out the category for "RRIRRRPPRLPRPRPRPHIRPRP" please?
Solution: mid bin

Exercise: Bin? "RRIRHRPPRLPRPRPRPMMSPRP"
Solution: high bin

Exercise: Would you mind sorting "RRIRLRPPRLPRPRPRPFKHPRP" into the appropriate category?
Solution: mid bin

----------
# System: Escherichia coli TOP10;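 note: peptides expressed intracellularly from a pBAD plasmid library in pooled LB shake-flask culture, induced with 0.3% L-arabinose, DNA abundance read by NGS, three biological replicates, DESeq2 with apeglm shrinkage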
# method: shrunken log2 fold change of peptide-encoding DNA abundance (4.5 h post-induction vs induction); higher = less antimicrobial activity (less host growth inhibition)
# measurement setup: time post-induction: 4.5 h; library: site-saturation at positions 5, 18, 19, 20
Each entry below carries its recorded shrunken log2 fold change.
Response field accepts a number only; no unit should be typed.

RRIRKRPPRLPRPRPRPYDSPRP; 0.0392
RRIRMRPPRLPRPRPRPFVEPRP; -0.0699
RRIRKRPPRLPRPRPRPVGAPRP; 0.853
RRIRQRPPRLPRPRPRPCYEPRP; -0.0157
RRIRIRPPRLPRPRPRPPGNPRP; -0.233

Exercise: Return reported shrunken log2 fold change; argument: "RRIRHRPPRLPRPRPRPNGKPRP"
Solution: -0.335

Exercise: Param item = "RRIRGRPPRLPRPRPRPDFYPRP" ; retrieve measured shrunken log2 fold change.
Solution: 0.232

Exercise: Form field: reported shrunken log2 fold change of "RRIRQRPPRLPRPRPRPWNIPRP"
Solution: -0.0185

Exercise: Fill blank: measured shrunken log2 fold change of the sequence "RRIRIRPPRLPRPRPRPDDQPRP" is ____.
Solution: 0.0121

Exercise: Tell me the measured shrunken log2 fold change of "RRIRIRPPRLPRPRPRPAWCPRP" , please.
Solution: -0.0802

Exercise: Any idea what its shrunken log2 fold change is? The sequence is "RRIRLRPPRLPRPRPRPMWHPRP"
Solution: 0.203

Exercise: Need shrunken log2 fold change, item "RRIRERPPRLPRPRPRPCGLPRP"
Solution: -0.0273

The measured values listed here are drawn from the supplement of paper PMC9112550.
